Recorded values, source PubChem BioAssay (NCI).

- Test system: HS 578T breast
- MEASUREMENT_PROTOCOL: NCI tumour cell line growth inhibition, 48 h
Measured TGI accompanies every entry in the list below.
REPORTED_PROPERTY: TGI (µM)

1) CC(=O)N1CCN(CCCCN2c3ccccc3Sc3cc(N=[N+]=[N-])ccc32)CC1	32.7
2) CNC(=O)c1cc(Oc2ccc3nc(NC(=O)Nc4cc(C(F)(F)F)cc(C(F)(F)F)c4)sc3c2)ccn1	4.84
3) CN1C(=O)[C@@H]2[C@@H]3c4ccccc4N[C@@H]3c3[nH]c4ccccc4c3[C@@H]2C1=O	76.5
4) NCCCCCCCCCn1c2c(c3ccccc3c1=O)C(=O)c1ccccc1-2	21.9
5) COC1C(C)OC(OC2CC(C)(O)Cc3cc4c(c(O)c32)C(=O)c2c(O)cc3c(c2C4=O)OC2OC3(C)C(O)C(N(C)C)C2O)C(OC)C1(C)OC (stereo not given)	0.000563
6) COC1=CC(c2ccc[nH]2)=N/C1=C\c1[nH]c(C)c(C)c1CCC(=O)OCc1ccccc1	1.68
7) C=C(C)C1CCC2(C(=O)O)CCC3(C)C(CCC4C5(C)CCC(O)C(C)(C)C5CCC43C)C12 (stereo not given)	55.7
8) N/C(=N\C(N)=N\c1nc2ccccc2s1)c1ccnc(Br)c1	46
9) COc1ccccc1[C@@H]1CCC2CC[C@@H](c3ccccc3OC)[N+]21Cc1ccccc1 (stereo not given in full)	35.8
10) Cn1c(=O)c(-c2c(Cl)cccc2Cl)cc2cnc(Nc3ccc(I)cc3)nc21	0.235

----------
Measured GI50 accompanies every entry in the list below.
- Test system: ACHN renal
- MEASUREMENT_PROTOCOL: NCI tumour cell line growth inhibition, 48 h
REPORTED_PROPERTY: GI50

1. CNC(=O)c1cc(Oc2ccc3nc(NC(=O)Nc4cc(C(F)(F)F)cc(C(F)(F)F)c4)sc3c2)ccn1	0.542 µM
2. COC1/C=C/OC2(C)Oc3c(C)c(O)c4c(O)c(c(C=NOC(c5ccccc5)c5ccccc5)c(O)c4c3C2=O)NC(=O)/C(C)=C/C=C/C(C)C(O)C(C)C(O)C(C)C(OC(C)=O)C1C (stereo not drawn)	1.17 µM
3. CN1CCN(Cn2nc(-c3cc(F)c(Cl)cc3Cl)oc2=S)CC1	34.6 µM
4. O=C1c2ccccc2-c2ccccc2C1(Cl)Cl	1.72 µM
5. COc1cc(/C=C2\CC3C4CCC5=CC(=O)CC[C@]5(C)C4CC[C@]3(C)C2=O)ccc1OCCN1CCCCC1 (stereo partly drawn)	3.84 µM
6. COc1cc(/C=C/c2ccc(S(N)(=O)=O)cc2)cc(OC)c1	23.5 µM
7. COc1cccc(/C=C2\CCc3ccccc3C2=O)c1	10.2 µM
8. O=C(NC(Cc1ccccc1)C(=O)CCl)OCc1ccccc1 (stereo not drawn)	3.72 µM
9. Oc1[nH]c2ccccc2c1/C=c1/ccc2c(c1)N=C(c1cc(F)cc(F)c1)N=2	7.39 µM
10. NCCCCCCCCCn1c2c(c3ccccc3c1=O)C(=O)c1ccccc1-2	8.2 µM
11. C=C(C)[C@@H]1CC[C@]2(C(=O)N3CCN(C)CC3)CC[C@]3(C)[C@H](CC[C@@H]4[C@@]5(C)CC[C@H](O)C(C)(C)[C@@H]5CC[C@]43C)[C@@H]12	1.69 µM
12. COc1ccc(Nc2ncccc2C(=O)NCc2cn(Cc3cccc(Oc4ccccc4)c3)nn2)c(OC)c1	3.94 µM
13. C1C[S][Ge]2([S]CCS1)[S]CCSCC[S]2	> 100 µM

----------
- System: MCF7 breast
- MEASUREMENT_PROTOCOL: NCI tumour cell line growth inhibition, 48 h; in the data active = GI50 below about 0.43 µM; inactive = the rest
Classes used: active, inactive

1. N/C(=N\C(N)=N\c1nc2ccccc2s1)c1ccnc(Br)c1	inactive
2. O=C(Nc1ccc(Cl)cc1)c1cc2ccccc2cc1OP(=O)(O)O	inactive
3. Cc1cc2nc3c4cc([N+](=O)[O-])ccc4n(CCN(C)C)c3nc2cc1C	active
4. O=C(NC(Cc1ccccc1)C(=O)CCl)OCc1ccccc1 (stereo unspecified)	inactive
5. Cc1nc2cc(Nc3nc(Nc4ccc(F)cc4)nc(N4CCCC4)n3)ccc2n1Cc1ccccc1	inactive
6. O=C(Nc1nc(-c2ccccc2Cl)cs1)c1cc(-c2ccc(Cl)cc2)nc2ccc(Cl)cc12	inactive
7. O=C1Nc2c(ccc(Cl)c2Cl)/C1=C\c1cc(C(F)(F)F)cc(C(F)(F)F)c1	inactive
8. ClCc1ccc(-c2ccc(Cn3cnc4c(Cl)ncnc43)cc2)cc1	inactive
9. C=C(C)[C@@H]1CC[C@]2(C(=O)N3CCN(C)CC3)CC[C@]3(C)[C@H](CC[C@@H]4[C@@]5(C)CC[C@H](O)C(C)(C)[C@@H]5CC[C@]43C)[C@@H]12	inactive
10. CS(=O)(=O)c1ccc(-c2cnc(NCc3ccco3)n3cnnc23)cc1	inactive
11. COc1ccc(Nc2ncccc2C(=O)NCc2cn(Cc3cccc(Oc4ccccc4)c3)nn2)c(OC)c1	inactive

----------
- Test system: ACHN renal
- MEASUREMENT_PROTOCOL: NCI tumour cell line growth inhibition, 48 h
REPORTED_PROPERTY: TGI

1. CSCC(COC(C)=O)(CSC)c1ccncc1	> 100 µM
2. O=C1C(=O)N(C23CC4CC(CC(C4)C2)C3)C(=S)N1c1ccccc1	> 100 µM
3. CS(=O)(=O)c1ccc(-c2cnc(NCc3ccco3)n3cnnc23)cc1	> 100 µM
4. Cc1nc(-n2nc(-c3ccccc3)cc2-c2ccccc2)sc1C(/C=C/c1ccc([N+](=O)[O-])cc1)=N/NC(N)=S	> 100 µM
5. COc1cc2nc3n(c(=O)c2cc1OC)CCCCC3	> 100 µM
6. CN(C)C=Nc1c2c(nc3ccccc13)CCCC2	> 100 µM
7. Cc1sc2nc3n(c(=O)c2c1C)N=C(c1ccccc1)CS3	> 100 µM
8. Cc1ccc(S(=O)(=O)NCCCSCCO)cc1	> 100 µM
9. C=C(C)[C@@H]1CCC2=C(CC[C@]3(C)[C@@H]([C@@H](CCC=C(C)C)C(=O)O)[C@H](O)C[C@@]23C)[C@@]1(C)CCC(=O)O	> 100 µM
10. COc1ccc(Oc2nc3c(N)cc(C(F)(F)F)cc3nc2-c2ccccc2)cc1	> 100 µM
11. Nc1nc(N)c2nc(CNc3ccc(C(=O)NC(CCNC(=O)c4ccccc4C(=O)O)C(=O)O)cc3)cnc2n1 (configuration not stated)	> 100 µM
12. Cc1cc2c(C)nn(Cc3ccccc3Cl)c2c(C#N)c1C	> 100 µM
13. C=CC(=C)CCC(Br)C(C)(C)Cl (configuration not stated)	> 100 µM
14. CN1C(=O)[C@@H]2[C@@H]3c4ccccc4N[C@@H]3c3[nH]c4ccccc4c3[C@@H]2C1=O	49.9 µM
15. NCCN(CCN)/[N+]([O-])=N/O	> 100 µM
16. CCCCC1N=CNc2c1ccc1c2[nH]c2ccccc21 (configuration not stated)	5.45 µM
17. O=c1[nH]c(-c2ccc(Cl)cc2)cc2ccsc12	> 100 µM
18. COc1cc(/C=C2\CC3C4CCC5=CC(=O)CC[C@]5(C)C4CC[C@]3(C)C2=O)ccc1OCCN1CCCCC1 (some centres not stated)	13.1 µM
19. COC(=O)[C@@H](NC(=O)c1ccc(CNC(=O)/C(C)=C/c2ccccc2)cc1)C(C)C	> 100 µM
20. COc1cc(=O)oc(/C=C/CO)c1C	> 100 µM
21. O=C1C(Cl)C(c2ccc([N+](=O)[O-])cc2)N1n1cnc2ccccc2c1=O (configuration not stated)	> 100 µM
22. COc1ccc(NC(=O)C2=CC(=O)c3ccc(O)cc3C2=O)c(OC)c1	> 100 µM
23. CP(=O)(O)C(N)c1ccccc1 (configuration not stated)	> 100 µM
24. O=C(O)c1ccccc1C1c2ccc(Cl)cc2Oc2cc(Cl)ccc21	> 100 µM
25. [Au+].c1c[n-]cn1.c1ccc([PH+](c2ccccc2)c2ccccc2)cc1	17.6 µM
26. CC1(C)OC2[C@@H](CO[C@@]3([C@H]4OC(C)(C)O[C@@H]4CO)OC(C)(C)O[C@@H]23)O1 (some centres not stated)	> 100 µM
27. CN(CCCCN)c1ccc2c(=O)[nH][nH]c(=O)c2c1	> 100 µM
28. c1cnc2nc3n(c2c1)CSC3	> 100 µM
29. CCOC(=O)C(NC(=O)c1ccccc1)(Nc1ccc(S(=O)(=O)Nc2ccc(OC)nn2)cc1)C(F)(F)F (configuration not stated)	> 100 µM
30. CCCCCCn1c2c(c3c(O)cccc31)C(=O)c1ccccc1-2	30.3 µM
31. Cc1cc2nc(CC(C(F)(F)F)C(F)(F)F)oc2cc1C	20.7 µM
32. COc1ccc(Nc2ncccc2C(=O)NCc2cn(Cc3cccc(Oc4ccccc4)c3)nn2)c(OC)c1	> 100 µM
33. CN1CCN(Cn2nc(-c3cc(F)c(Cl)cc3Cl)oc2=S)CC1	> 100 µM
34. O=C1Nc2c(ccc(Cl)c2Cl)/C1=C\c1cc(C(F)(F)F)cc(C(F)(F)F)c1	11.3 µM
35. C=C(C)C1CCC2(C(=O)O)CCC3(C)C(CCC4C5(C)CCC(O)C(C)(C)C5CCC43C)C12 (configuration not stated)	21.1 µM
36. Cn1c2c(c3ccccc31)CCN(CCCN1CCN(c3ccccc3)CC1)C2=O	44.7 µM
37. Cc1cc(=O)[nH]c(NNC(C#N)c2ccc(N(C)C)cc2)n1 (configuration not stated)	> 100 µM
38. O=C1NC2OC(CO)C(O)C(O)C2O1 (configuration not stated)	> 100 µM
39. C=C(C)[C@@H]1CC[C@]2(C(=O)N3CCN(C)CC3)CC[C@]3(C)[C@H](CC[C@@H]4[C@@]5(C)CC[C@H](O)C(C)(C)[C@@H]5CC[C@]43C)[C@@H]12	3.12 µM
40. Nc1ccn(CCCC(c2ccccc2)P(=O)(O)O)c(=O)n1 (configuration not stated)	> 100 µM
41. COc1cc(O)c2c(=O)c(OC)c(-c3ccc(OC)c(OC)c3)oc2c1.[Sn]	> 100 µM
42. CC(=O)Nc1ccc(C(=O)n2[nH]c(C)c(/C=C3\C(=O)C=Cc4ccccc43)c2=O)cc1	> 100 µM
